Source of measurements: ChEMBL document CHEMBL4152300

Exercise: state measured IC50 for each of the compounds provided.
Biological target: Receptor-type tyrosine-protein kinase FLT3 (Homo sapiens, UniProt P36888)
Sequence (P36888 27-993 limits assumed): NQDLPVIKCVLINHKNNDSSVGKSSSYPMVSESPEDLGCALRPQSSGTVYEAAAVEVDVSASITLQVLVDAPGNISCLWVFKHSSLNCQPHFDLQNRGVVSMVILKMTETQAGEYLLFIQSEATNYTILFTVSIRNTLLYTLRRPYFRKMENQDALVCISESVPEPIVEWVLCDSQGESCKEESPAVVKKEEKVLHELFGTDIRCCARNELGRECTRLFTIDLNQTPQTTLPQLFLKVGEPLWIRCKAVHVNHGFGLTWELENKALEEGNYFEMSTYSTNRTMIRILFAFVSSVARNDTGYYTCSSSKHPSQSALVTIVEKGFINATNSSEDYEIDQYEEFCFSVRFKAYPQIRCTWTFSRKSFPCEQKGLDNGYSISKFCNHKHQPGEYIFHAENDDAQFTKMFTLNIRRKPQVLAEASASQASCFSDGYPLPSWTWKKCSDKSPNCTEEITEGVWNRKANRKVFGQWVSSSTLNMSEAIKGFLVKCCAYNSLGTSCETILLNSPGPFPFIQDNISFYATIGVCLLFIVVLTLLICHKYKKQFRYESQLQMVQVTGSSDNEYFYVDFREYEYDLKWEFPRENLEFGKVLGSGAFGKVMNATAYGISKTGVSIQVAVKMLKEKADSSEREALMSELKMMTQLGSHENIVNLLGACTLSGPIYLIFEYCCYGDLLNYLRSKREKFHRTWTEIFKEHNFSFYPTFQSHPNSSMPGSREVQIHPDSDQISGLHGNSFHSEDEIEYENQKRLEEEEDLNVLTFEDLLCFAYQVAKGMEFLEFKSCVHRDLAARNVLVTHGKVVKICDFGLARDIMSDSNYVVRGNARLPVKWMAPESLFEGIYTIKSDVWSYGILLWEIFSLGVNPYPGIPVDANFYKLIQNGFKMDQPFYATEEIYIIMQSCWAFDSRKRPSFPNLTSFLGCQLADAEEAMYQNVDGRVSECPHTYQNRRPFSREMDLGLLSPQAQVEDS
Assay: Inhibition of human FLT3 R595_E596 mutant by Hotspot assay
Write the numeric value and follow it with the unit.

Data point: CN1CCN(Cc2ccc(NC(=O)c3n[nH]cc3Nc3ncnc4sccc34)cc2)CC1 ; IC50 = 2.67 nM

Short answer for Cc1nc2c(c(Nc3c[nH]nc3C(=O)Nc3ccc(N4CCNCC4)cc3)n1)CCC2 : IC50 was 8.74 nM

###

Assay: Half life in human liver microsomes preincubated for 5 mins followed by NADPH addition by LC-MS/MS analysis
Assay type: ADME, microsome
Please provide measured half-life for the entries that follow.
Units required after the number.

half-life for Cc1nc2c(c(Nc3c[nH]nc3C(=O)Nc3ccc(N4CCNCC4)cc3)n1)CCC2 is 2.45 h

Sample CN1CCN(Cc2ccc(NC(=O)c3n[nH]cc3Nc3ncnc4sccc34)cc2)CC1 ; half-life observed: 0.85 h

###

Exercise: for every item that follows, state its recorded IC50.
Answer with the figure and its unit, nothing else.

Form: item Cc1nc2c(c(Nc3c[nH]nc3C(=O)Nc3ccc(N4CCNCC4)cc3)n1)CCC2 ; test system Vascular endothelial growth factor receptor 3 (Homo sapiens, UniProt P35916); IC50: 23 nM

Item CN1CCN(Cc2ccc(NC(=O)c3n[nH]cc3Nc3ncnc4sccc34)cc2)CC1 ; assay system Vascular endothelial growth factor receptor 3 (Homo sapiens, UniProt P35916); IC50 reported as 4.5 nM

###

Target: Receptor-type tyrosine-protein kinase FLT3 (Homo sapiens, UniProt P36888, ITD)
Sequence (P36888 whole entry, looked up, change not shown): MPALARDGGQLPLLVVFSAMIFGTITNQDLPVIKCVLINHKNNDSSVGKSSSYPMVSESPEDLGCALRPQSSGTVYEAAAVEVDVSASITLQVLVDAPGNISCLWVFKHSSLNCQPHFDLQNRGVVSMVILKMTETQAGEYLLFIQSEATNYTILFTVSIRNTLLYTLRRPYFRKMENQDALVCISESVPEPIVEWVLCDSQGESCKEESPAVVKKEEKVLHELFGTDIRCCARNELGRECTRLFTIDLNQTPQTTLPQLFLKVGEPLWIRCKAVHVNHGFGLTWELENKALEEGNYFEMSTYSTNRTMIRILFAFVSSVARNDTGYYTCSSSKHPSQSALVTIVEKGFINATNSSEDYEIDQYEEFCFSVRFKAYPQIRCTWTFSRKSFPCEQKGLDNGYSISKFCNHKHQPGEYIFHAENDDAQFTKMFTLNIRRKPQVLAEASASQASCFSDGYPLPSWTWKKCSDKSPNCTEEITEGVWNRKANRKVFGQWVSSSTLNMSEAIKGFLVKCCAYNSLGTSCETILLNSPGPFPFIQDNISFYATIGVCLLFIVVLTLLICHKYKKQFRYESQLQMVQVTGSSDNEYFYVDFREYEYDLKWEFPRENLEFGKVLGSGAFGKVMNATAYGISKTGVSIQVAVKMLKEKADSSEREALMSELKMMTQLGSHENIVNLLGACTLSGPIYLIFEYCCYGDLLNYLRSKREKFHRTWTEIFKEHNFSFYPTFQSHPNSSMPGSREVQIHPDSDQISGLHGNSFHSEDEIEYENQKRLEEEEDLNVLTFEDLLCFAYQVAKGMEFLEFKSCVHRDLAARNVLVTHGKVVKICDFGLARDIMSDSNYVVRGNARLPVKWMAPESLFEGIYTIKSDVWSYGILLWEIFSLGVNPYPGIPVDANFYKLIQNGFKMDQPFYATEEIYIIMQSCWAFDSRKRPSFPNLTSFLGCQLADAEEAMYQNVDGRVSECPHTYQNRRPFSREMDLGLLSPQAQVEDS
Experiment: Inhibition of human FLT3 ITD-W51 mutant by Hotspot assay
quantity name: pIC50
Formally, pIC50 is defined as -log10 of the concentration c, with c in mol/L.

// pIC50 lookup, molecule = Cc1nc2c(c(Nc3c[nH]nc3C(=O)Nc3ccc(N4CCNCC4)cc3)n1)CCC2 , result: 7.89

pIC50 in this record for CN1CCN(Cc2ccc(NC(=O)c3n[nH]cc3Nc3ncnc4sccc34)cc2)CC1 : 8.73

###

Target: CDK2 (cyclin-dependent kinase 2) (Homo sapiens, UniProt P24941)
Test: Inhibition of CDK2 (unknown origin) assessed as residual activity at 0.123 uM by Hotspot assay relative to control
Settings: CDK2 enzyme (unknown origin), read-out: Activity
Label MET when activity at 0.123 µM >= 90%; otherwise NOT MET.

Prompt line: Is reported activity at 0.123 µM greater than or equal to 90% here: CCc1nc(Nc2c[nH]nc2C(=O)Nc2ccc(N3CCNCC3)cc2)c2ccsc2n1
Response line: NOT MET

Prompt line: Say whether O=C(Nc1ccc(CN2CCOCC2)cc1)c1n[nH]cc1Nc1nc(C2CC2)nc2sccc12 shows activity at 0.123 µM of 90% or more.
Response line: NOT MET

Prompt line: Identify whether the reported activity at 0.123 µM of the following compound is 90% or greater: O=C(Nc1ccc(N2CCNCC2)cc1)c1n[nH]cc1Nc1nc(Cl)nc2sccc12
Response line: NOT MET

Prompt line: Given the entry Cc1nc(Nc2c[nH]nc2C(=O)Nc2ccc(CN3CCN(C)CC3)cc2)c2ccsc2n1 , answer whether its activity at 0.123 µM meets or surpasses 90%.
Response line: NOT MET

Prompt line: Given O=C(Nc1ccc(N2CCNCC2)cc1)c1n[nH]cc1Nc1nc(C2CC2)nc2sccc12 , state whether its activity at 0.123 µM is at least 90%.
Response line: MET

Prompt line: Decide: activity at 0.123 µM of Cc1nc2c(c(Nc3c[nH]nc3C(=O)Nc3ccc(N4CCNCC4)cc3)n1)CCC2 >= 90%?
Response line: NOT MET

Prompt line: I'd appreciate it if you could say whether Cc1nc2c(c(Nc3c[nH]nc3C(=O)Nc3ccc(N4CCNCC4)cc3)n1)CCCC2 has activity at 0.123 µM at least equal to 90%.
Response line: NOT MET

Prompt line: Has CC(C)c1nc(Nc2c[nH]nc2C(=O)Nc2ccc(N3CCNCC3)cc2)c2ccsc2n1 a recorded activity at 0.123 µM greater than or equal to 90%?
Response line: MET
